FYI, the data here is from paper PMC10814725.

# procedure-text: Cell viability by CCK-8, HEK-Blue hTLR4 cells
# Format: cell-based
# test-settings: human, Viability Cell (%) HEK-Blue hTLR4 LPS-Induced (10 ng/mL)
Recorded viability at 18 h, 20 µM for the following compounds

# compound, value-operator, viability at 18 h, 20 µM / %
data = [
    ("CC(=O)O[C@@H]1C[C@H]2C(C)(C)C(=O)C=C[C@]2(C)[C@H]2CC[C@]3(C)C(C(=O)C[C@H]3c3ccoc3)[C@@]21C (some centres unmarked)", "=", 75.5),
    ("CC(=O)O[C@H]1[C@@H](OC(C)=O)[C@]2(C)[C@H](CC[C@@]3(C)[C@H](c4ccoc4)C(=O)[C@H]4O[C@@]423)[C@@]2(C)C=CC(=O)C(C)(C)[C@H]12", ">", 99.9),
    ("CC(=O)O[C@H]1[C@@H](OC(C)=O)[C@]2(C)[C@H](CC[C@@]3(C)[C@H](c4ccoc4)C[C@H]4O[C@@]423)[C@@]2(C)C=CC(=O)C(C)(C)[C@H]12", ">", 99.9),
    ("C[C@]12C3=CC[C@@H](c4ccoc4)[C@]3(C)CC[C@@H]1[C@@]1(C)C(=O)C=C[C@@]3(C)CO[C@@H]([C@H]2O)[C@H]13", ">", 99.9),
    ("CC(=O)O[C@@H]1C[C@]2(C)C(=CC[C@H]2c2ccoc2)[C@@]2(C)[C@H]1[C@@]1(C)C=CC(=O)C(C)(C)[C@@H]1C[C@H]2OC(C)=O", "=", 9.84),
]

---

# procedure-text: Cell viability by CCK-8, HEK-Blue hTLR4 cells
# Type: cell-based
# test-settings: human, Viability Cell (%) HEK-Blue hTLR4 LPS-Induced (10 ng/mL)
# Experimental: The viability of HEK-Blue^TM hTLR4, […], and THP-1 cells was evaluated using the Dojindo Cell Counting Kit-8 (CCK-8) according to the manufacturer’s instructions. The viability of HEK-Blue^TM hTLR4 and THP-1 cells was assessed under identical conditions to the corresponding assay treatments. […] After 18 h of incubation, a 10% (v/v) CCK-8 solution was added to each well and incubated at 37 °C for 1 h, and cell viability was calculated.

# compound, value-operator, viability at 18 h, 20 µM (%)
records = [
    ("CC(=O)O[C@@H]1[C@H](O)[C@H]2C(C)(C)C(=O)C=C[C@]2(C)[C@H]2CC[C@]3(C)C(=CC[C@H]3c3ccoc3)[C@]12C [Compound 9, nimonol]", "=", 74.8),
    ("CC1(C)C(=O)C=C[C@]2(C)[C@H]3CC[C@]4(C)C(C(=O)C[C@H]4c4ccoc4)[C@]3(C)[C@H](O)C[C@@H]12 (stereo partly drawn) [Compound 1, 7α-hydroxyneotrichilenone]", ">", 99.9),
    ("C[C@]12C3=CC[C@@H](C4=CC(O)OC4=O)[C@]3(C)CC[C@@H]1[C@@]1(C)C(=O)C=C[C@@]3(C)CO[C@@H]([C@H]2O)[C@H]13 (some centres unmarked) [Compound 14, pentandricine]", ">", 99.9),
    ("CC(=O)O[C@H]1[C@@H](OC(C)=O)[C@@]2(C)C3=CC[C@@H](c4ccoc4)[C@]3(C)CC[C@@H]2[C@@]2(C)C=CC(=O)C(C)(C)[C@H]12 [Compound 5, dysobinin]", "=", 23.6),
    ("CC(=O)O[C@@H]1C[C@H]2C(C)(C)C(=O)C=C[C@]2(C)[C@H]2CC[C@@]3(C)[C@H](c4ccoc4)C[C@H]4O[C@]43[C@@]21C [Compound 13, trichilenone acetate]", ">", 99.9),
]
